All figures here come from patent US20210347873A1.

TARGET OR TEST SYSTEM: T1, biotinylated hBLyS-ECD (human, UniProt Q9Y275 134-285, biotinylated with Biotin-X-X-NHS (molar ratio 7:1); sites not stated)
T1 construct: also called biotinylated immunogen; biotinylated hBLvS-ECD
T1 sequence (Q9Y275 134-285): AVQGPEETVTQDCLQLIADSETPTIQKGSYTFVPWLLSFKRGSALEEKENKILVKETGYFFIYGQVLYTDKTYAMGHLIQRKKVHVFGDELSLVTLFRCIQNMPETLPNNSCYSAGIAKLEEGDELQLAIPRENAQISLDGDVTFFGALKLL
PROTOCOL TEXT: BAFF R-coated ELISA, biotinylated hBLyS-ECD bound in presence of antibody 20 nM
# OD450 nm values compiled below
Your answer should be a plain number; it is taken to be in OD450 nm.

Answered examples (2):
>  <BINDER>
h8E7D9C7F5-1 (antibody, V domains shown, Humanized antibody; also called humanized BLyS antibody h8E7D9C7F5 variant 1 (VH.1 / Vk.1)) VH: EVQLVQSGAEVKKPGASVKVSCKASGYTFTSYGISWVRQAPGQGLEWMGEIYPRSGNTYYNEKFKGRVTMTTDTSTSTAYMELRSLRSDDTAVYYCARSGPITTLVATDYGMDYWGQGTTVTVSS VL: DIVMTQSPDSLAVSLGERATINCRASKSVSTSSYSYMHWYQQKPGQPPKLLIKFASNLESGVPDRFSGSGSGTDFTLTISSLQAEDVAVYYCQHSREFPYTFGGGTKVEIK

>  <UNIT TAG>
OD450 nm

>  <OD450 nm>
0.721

$$$$
>  <BINDER>
c8E7D9C7F5 (antibody, V domains shown, also called chimeric antibody c8E7D9C7F5) VH: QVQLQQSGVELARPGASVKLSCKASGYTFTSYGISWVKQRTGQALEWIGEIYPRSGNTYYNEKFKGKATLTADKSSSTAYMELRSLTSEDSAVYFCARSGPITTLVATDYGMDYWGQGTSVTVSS VL: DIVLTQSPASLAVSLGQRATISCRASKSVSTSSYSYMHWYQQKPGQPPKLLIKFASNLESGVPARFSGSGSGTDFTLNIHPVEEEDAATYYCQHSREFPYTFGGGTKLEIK

>  <UNIT TAG>
OD450 nm

>  <OD450 nm>
0.66

$$$$

Query block: Tell me the measured OD450 nm of h97A3C2H4-9 (antibody, V domains shown, Humanized antibody; VH3-7/JH6 CDR-grafted with A93T, G44R; also called humanized BLyS antibody h97A3C2H4 variant 9 (VH.1b / Vk.1d)) VH: EVQLVESGGGLVQPGGSLRLSCAASGFTFSTYTMSWVRQAPGKRLEWVAYISYGGGSTSYPDTVKGRFTISRDNAKNSLYLQMNSLRAEDTAVYYCTRHVTVVENSMDYWGQGTTVTVSS VL: DILLTQSPDFQSVTPKEKVTITCRASQSIGTSIHWYQQKTDQSPKLLIKYVSESFSGTPSRFSGSGSGTDFTLTINSLEAEDAATYYCQQTHSWPWTFGGGTKVEIK , please.
Result block: 0.748

Query block: # input binder: c97A3C2H4 (antibody, V domains shown, also called chimeric antibody c97A3C2H4) VH: EVKLVESGGGLVQPGGSLKLSCAASGFTFSTYTMSWVRQTPEKRLEWVAYISYGGGSTSYPDTVKGRFTISRDNAKNTLYLQMSSLKSEDTAIYYCTRHVTVVENSMDYWGQGTSVTVSS VL: DILLTQSPDILSVSPGERVSFSCRASQSIGTSIHWYQQRTNGSPRLLIKYVSESFSGTPSRFSGSGSGTAFTLTINSVESEDIADYYCQQTHSWPWTFGGGTKLEIK ; wanted: its OD450 nm
Result block: 0.717
